Data provenance: patent US11292801B2

assayed-target: Human Calpain 1/NS1 (Homo sapiens, UniProt P07384)
Sequence (P07384 whole entry, one chain of several): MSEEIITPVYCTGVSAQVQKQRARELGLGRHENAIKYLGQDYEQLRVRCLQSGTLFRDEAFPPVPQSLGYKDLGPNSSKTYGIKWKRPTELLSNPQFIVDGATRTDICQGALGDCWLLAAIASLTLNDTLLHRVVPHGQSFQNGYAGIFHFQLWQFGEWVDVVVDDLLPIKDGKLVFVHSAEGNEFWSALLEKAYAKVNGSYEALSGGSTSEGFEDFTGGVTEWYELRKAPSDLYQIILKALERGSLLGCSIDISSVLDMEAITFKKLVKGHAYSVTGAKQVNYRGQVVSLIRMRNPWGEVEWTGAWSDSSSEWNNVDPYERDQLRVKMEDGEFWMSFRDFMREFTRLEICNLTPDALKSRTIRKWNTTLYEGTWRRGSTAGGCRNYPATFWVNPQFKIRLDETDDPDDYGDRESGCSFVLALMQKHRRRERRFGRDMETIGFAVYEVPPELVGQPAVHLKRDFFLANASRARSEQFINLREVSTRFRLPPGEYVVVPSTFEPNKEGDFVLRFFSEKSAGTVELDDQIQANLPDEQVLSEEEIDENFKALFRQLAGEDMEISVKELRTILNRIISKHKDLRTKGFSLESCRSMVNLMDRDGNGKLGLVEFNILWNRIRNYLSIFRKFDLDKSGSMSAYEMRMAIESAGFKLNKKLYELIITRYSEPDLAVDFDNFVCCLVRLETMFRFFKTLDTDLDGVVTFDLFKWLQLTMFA
assay-details: Biochemical inhibition of calpain 1, continuous fluorescence (FRET substrate) assay
stated-conditions: mean, read-out: Human Calpain 1/NS1 IC50 (nM)_MEAN
Protocol: Calpain 1, 2, and 9 activity and inhibition thereof are assessed by means of a continuous fluorescence assay. The SensoLyte 520 Calpain substrate (Anaspec Inc) is optimized for detecting calpain activity. This substrate contains a novel internally quenched 5-FAM/QXL™ 520 FRET pair. Calpains 1, 2, and 9 cleave the FRET substrate into two separate fragments resulting in an increase of 5-FAM fluorescence that is proportional to calpain activity. […]
recorded-metric: IC50

QUERY: Data request, read-out IC50, for CCOC(=O)CCNC(=O)C(=O)[C@@H]1C/C=C\COCCOCc2ccccc2C(=O)N1 [Compound 60]
RESULT: > 10000 nM

QUERY: Next molecule up: O=C[C@@H]1CCCCCCCCCCc2ccccc2C(=O)N1 [Compound 28]
RESULT: < 3000 nM

QUERY: Same read-out for O=C(NCCc1ccccc1)C(=O)C1CCCCOCCOCc2ccccc2C(=O)N1 (stereo not drawn) [Compound 104] ?
RESULT: > 10000 nM

QUERY: Follow-up item: NC(=O)C(=O)[C@@H]1CCCCCOc2cccc(c2)-c2ncccc2C(=O)N1 [Compound 130]
RESULT: < 3000 nM

QUERY: Can you check O=C[C@@H]1CCCCCCCOc2ccccc2C(=O)N1 [Compound 6] next?
RESULT: 3000 to 10000 nM

QUERY: Proceed to COc1ccc(CCNC(=O)C(=O)C2CCCCOCCOCc3ccccc3C(=O)N2)cc1OC (stereo not drawn) [Compound 123]
RESULT: > 10000 nM

QUERY: Can you handle C[C@@H](NC(=O)C(=O)C1CCCCOCCOCc2ccccc2C(=O)N1)c1cccnc1 (stereo partly drawn) [Compound 127] next?
RESULT: > 10000 nM

QUERY: Note, next up: O=C[C@@H]1Cc2cccc(c2)CCCCOc2cccc(c2)-c2ncccc2C(=O)N1 [Compound 35]
RESULT: < 3000 nM

QUERY: And the next one, O=C(NCCc1ccc(Cl)cc1)C(=O)[C@@H]1CCCCOCCOCc2ccccc2C(=O)N1 [Compound 128] ?
RESULT: 3000 to 10000 nM

---

What IC50 was measured for each of the following?
assayed-target: Human Calpain 9/NS1 (Homo sapiens)
Sequence (O14815 1-690): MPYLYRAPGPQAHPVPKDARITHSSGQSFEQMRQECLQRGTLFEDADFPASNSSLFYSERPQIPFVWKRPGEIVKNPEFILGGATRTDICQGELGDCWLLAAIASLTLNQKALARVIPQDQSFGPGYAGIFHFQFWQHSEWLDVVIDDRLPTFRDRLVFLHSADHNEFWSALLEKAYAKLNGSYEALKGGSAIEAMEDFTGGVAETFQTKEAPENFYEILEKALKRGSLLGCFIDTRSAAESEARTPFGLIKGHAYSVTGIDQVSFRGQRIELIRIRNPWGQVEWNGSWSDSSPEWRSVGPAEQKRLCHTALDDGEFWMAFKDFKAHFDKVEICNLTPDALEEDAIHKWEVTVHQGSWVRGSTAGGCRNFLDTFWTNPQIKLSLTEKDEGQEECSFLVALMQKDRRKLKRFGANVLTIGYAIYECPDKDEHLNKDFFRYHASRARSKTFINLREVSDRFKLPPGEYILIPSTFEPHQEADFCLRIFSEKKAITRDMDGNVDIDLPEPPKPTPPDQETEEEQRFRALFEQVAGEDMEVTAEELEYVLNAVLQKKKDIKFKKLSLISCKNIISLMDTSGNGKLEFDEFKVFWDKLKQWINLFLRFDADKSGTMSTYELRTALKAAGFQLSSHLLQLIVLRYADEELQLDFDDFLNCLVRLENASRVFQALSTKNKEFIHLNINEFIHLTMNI
Sequence (P04632 1-268 partner): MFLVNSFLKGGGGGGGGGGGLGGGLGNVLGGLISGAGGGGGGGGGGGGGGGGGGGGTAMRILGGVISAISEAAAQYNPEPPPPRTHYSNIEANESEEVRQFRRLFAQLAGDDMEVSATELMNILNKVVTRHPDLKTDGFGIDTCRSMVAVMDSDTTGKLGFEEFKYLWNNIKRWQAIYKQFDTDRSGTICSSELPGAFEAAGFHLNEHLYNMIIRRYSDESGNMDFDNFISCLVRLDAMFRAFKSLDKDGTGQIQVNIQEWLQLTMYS
assay-details: Biochemical inhibition of calpain 9, continuous fluorescence (FRET substrate) assay
stated-conditions: mean, read-out: Human Calpain 9/NS1 IC50 (nM)_MEAN

QUERY: Suppose we examine the compound C[C@H](NC(=O)C(=O)C1CCCCOCCOCc2ccccc2C(=O)N1)c1cccnc1 (stereo partly drawn) ; what IC50 value has been reported?
RESULT: > 10000 nM

QUERY: Another compound to check: O=C(NCCCN1CCOCC1)C(=O)C1CCCCOCCOCc2ccccc2C(=O)N1 (stereo not drawn)
RESULT: 3000 to 10000 nM

QUERY: Follow-up item: O=C[C@@H]1CC=CCOCCCCOCc2ccccc2C(=O)N1
RESULT: 3000 to 10000 nM
